tested on: ATP; test: switch fluorescence ratio, 500 uM ATP over buffer (Cy3 cluster intensity, sum of 5 cycles each) (fold (ratio)); higher = stronger signal-on switching upon ATP binding; sequences stand for … in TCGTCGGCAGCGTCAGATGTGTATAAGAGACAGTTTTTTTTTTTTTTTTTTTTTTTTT…TC; conditions: aptamer strand: ATP DNA aptamer (quencher-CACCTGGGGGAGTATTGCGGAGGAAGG + anchor), 100 nM annealed; ATP concentration: 500 uM;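 note: ATP exposure 15 min at 22 °C before imaging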
TEST READOUT: switch fluorescence ratio

q: Bench note: what switch fluorescence ratio did TTGTAAGTT show?
a: 0.997

q: Bench note: what switch fluorescence ratio did TTTGGGGTGT show?
a: 1.01

q: Bench note: what switch fluorescence ratio did TCTTTGTCGG show?
a: 0.977
